target: hKv7.2/hKv7.3 (Homo sapiens, UniProt O43525+O43526); construct: P2A self-cleaving peptide (between Kv7.3 and Kv7.2; the remnant would stay on the upstream protein) (C); test: Thallium influx assay for potassium channel activation; settings: HEK-hKv7.2/hKv7.3 cells; FLIPR Potassium Assay kit; AUC readout normalized to a reference compound
pEC50: −log10 of the molar value.
endpoint_label: pEC50

>>> measured_number("CC(C)(C)[C@@H](O)CC(=O)N[C@@H](CCC(F)F)c1cccc(OC(F)F)c1 [Example 21]")
6.00
>>> measured_number("O=C(CC(O)C1CCCC1)N[C@@H](COC(F)F)c1cccc(OC(F)F)c1 (single isomer, unassigned) [Example 16b]")
6.37
>>> measured_number("CC(O)(CC(=O)N[C@@H](COC(F)F)c1cccc(OC(F)(F)F)c1)C1(F)CC1 (single isomer, unassigned) [Example 10b]")
5.39
>>> measured_number("CC(O)(CC(=O)N[C@@H](COC(F)F)c1cccc(OC(F)F)c1)CC(F)(F)F (single isomer, unassigned) [Example 12b]")
5.21
>>> measured_number("O=C(CC(O)C1(C(F)(F)F)CC1)N[C@@H](COC(F)F)c1cccc(OC(F)F)c1 (single isomer, unassigned) [Example 3a]")
5.55
>>> measured_number("O=C(CC1(O)CC(F)(F)C1)N[C@@H](COC(F)F)c1cccc(OC(F)F)c1 [Example 26]")
6.02
>>> measured_number("CC(C)(C)[C@@H](O)CC(=O)N[C@@H](COC(F)(F)F)c1cccc(OC(F)(F)F)c1 [Example 19]")
6.03
>>> measured_number("CC(O)(CC(=O)N[C@@H](COC(F)F)c1cccc(OC(F)(F)F)c1)C1CC1 (single isomer, unassigned) [Example 11b]")
5.77
>>> measured_number("CC(C)(C)C(O)CC(=O)N[C@@H](COC(F)F)c1cccc(OC(F)F)c1 (single isomer, unassigned) [Example 1a]")
5.12
>>> measured_number("COC[C@H](NC(=O)C[C@](C)(O)C1(F)CC1)c1cccc(OC(F)(F)F)c1 (single isomer, unassigned) [Example 36a]")
5.57
>>> measured_number("O=C(CC(O)C1CC(F)(F)C1)N[C@@H](COC(F)F)c1cccc(OC(F)F)c1 (single isomer, unassigned) [Example 5b]")
5.35
>>> measured_number("CC(O)(CC(=O)N[C@@H](COC(F)F)c1cccc(OC(F)F)c1)C1(F)CC1 (single isomer, unassigned) [Example 9b]")
5.04
>>> measured_number("O=C(CC(O)C1(C(F)(F)F)CC1)N[C@@H](COC(F)F)c1cccc(OC(F)(F)F)c1 (single isomer, unassigned) [Example 4a]")
5.77
>>> measured_number("CC(C)(C)[C@@H](O)CC(=O)N[C@@H](CC#N)c1cccc(OC(F)(F)F)c1 [Example 24]")
5.62
>>> measured_number("O=C(CC(O)C1CC(F)(F)C1)N[C@@H](COC(F)F)c1cccc(OC(F)(F)F)c1 (single isomer, unassigned) [Example 6a]")
5.60
>>> measured_number("O=C(CC(O)C1CCCC1)N[C@@H](COC(F)F)c1cccc(OC(F)F)c1 (single isomer, unassigned) [Example 16a]")
5.59
>>> measured_number("CC1(C)CC(C(O)CC(=O)N[C@@H](COC(F)F)c2cccc(OC(F)F)c2)C1 (single isomer, unassigned) [Example 15a]")
5.43
>>> measured_number("CC(C)C(C)(O)CC(=O)N[C@@H](COC(F)F)c1cccc(OC(F)F)c1 (single isomer, unassigned) [Example 14a]")
5.28
>>> measured_number("O=C(CC1(O)CC(F)(F)C1)N[C@@H](COC(F)(F)F)c1cccc(OC(F)F)c1 [Example 30]")
5.74
>>> measured_number("CCC[C@H](NC(=O)CC(O)C1CC(F)(F)C1)c1cccc(OC(F)F)c1 (single isomer, unassigned) [Example 7a]")
5.40
>>> measured_number("O=C(CC1(O)CC(F)(F)C1)N[C@@H](COC1CC1)c1cccc(OC(F)(F)F)c1 [Example 28]")
5.49
>>> measured_number("CC(O)(CC(=O)N[C@@H](COC(F)F)c1cccc(OC(F)F)c1)C1(F)CC1 (single isomer, unassigned) [Example 9a]")
5.82
>>> measured_number("CC(C)CC(C)(O)CC(=O)N[C@@H](COC(F)F)c1cccc(OC(F)F)c1 (single isomer, unassigned) [Example 13a]")
6.02
>>> measured_number("CC(O)(CC(=O)N[C@@H](COC(F)F)c1cccc(OC(F)F)c1)CC(F)(F)F (single isomer, unassigned) [Example 12a]")
5.89
